TESTED ON: Mouse-human chimeric antibody 18B7 (IgG1) (mouse | human)
Sequence (heavy, as listed by the source, chain 1 of 2): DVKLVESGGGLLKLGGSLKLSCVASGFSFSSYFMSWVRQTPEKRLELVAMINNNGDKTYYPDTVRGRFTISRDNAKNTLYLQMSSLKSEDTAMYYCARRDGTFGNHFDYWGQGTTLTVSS
Sequence (light, as listed by the source, chain 2 of 2): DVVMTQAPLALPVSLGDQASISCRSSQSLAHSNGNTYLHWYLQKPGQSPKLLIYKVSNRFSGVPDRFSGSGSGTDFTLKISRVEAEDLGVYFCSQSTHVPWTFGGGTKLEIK
MEASUREMENT PROTOCOL: SPR; BIAcore 3000; antibody immobilised on a CM5 chip through primary amino groups; peptide P1 1.56 µM to 200 µM at 100 µl/min in 0.2 mM K2HPO4/KH2PO4 pH 6.5, 150 mM KCl, 0.01% Tween 20; 25°C; global fit to a two-state model, equilibrium constants calculated from the rate constants
Ends that are not written are not given here.
MEASURED QUANTITY: Kd (µM)
Express your answer in µM, writing the number without its unit.

# get_value(readout='Kd', item= SPNQHTPPWMLK (also: biotinylated, position not given here) [Peptide mimetic of GXM P1] )
541

The measured values listed here are drawn from paper PMC2110899.
